Where do these numbers come from? They come from patent US20080033046A1.

Assay: in vivo
Conditions: wild type, mouse, Cortisol level, ipsilateral steroid treated sponge
readout-label: concentration at 20 days (ng/g)
Numbers only, in ng/g.

Consider the molecule C[C@]12CCC(=O)C=C1CC[C@@H]1[C@@H]2[C@@H](O)C[C@@]2(C)[C@H]1CC[C@]2(O)C(=O)CO and give its measured concentration at 20 days.
4270

---

Assay: in vivo
Settings: 11bHSD-1 −/−, mouse, Cortisol level, contralateral placebo treated sponge
readout-label: concentration at 20 days (ng/g)
One number for each entry, in ng/g.

What concentration at 20 days value was documented for this molecule, C[C@]12CCC(=O)C=C1CC[C@@H]1[C@@H]2[C@@H](O)C[C@@]2(C)[C@H]1CC[C@]2(O)C(=O)CO ?
135
